This collection of values is drawn from the RNAGym collection of RNA variant scans (doi:10.1002/anie.201605470).

B1: Osa-1-4 twister ribozyme (parent)
chain: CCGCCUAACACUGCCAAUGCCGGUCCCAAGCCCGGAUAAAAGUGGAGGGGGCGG

Variants of: B1
Experiment: self-cleavage, relative activity (ratio to wild type); higher = more cleavage; co-transcriptional
Threshold check on self-cleavage: at or above 0.5 gives fulfilled, strictly below gives not fulfilled.

>>> classification("C21A G35C")
"not fulfilled"
>>> classification("A38U G22C")
"not fulfilled"
>>> classification("A16G G42U")
"fulfilled"
>>> classification("C33U G44U")
"fulfilled"
>>> classification("U18G U37C")
"fulfilled"
>>> classification("A41C G30U")
"not fulfilled"
>>> classification("A16U G50U")
"fulfilled"
>>> classification("C25U G49U")
"fulfilled"
>>> classification("A46U C32A")
"not fulfilled"
>>> classification("G23U G35C")
"not fulfilled"
>>> classification("A7U C20A")
"not fulfilled"
